# system-name: human CYP11B1 (Homo sapiens, UniProt P15538)
# Construct: expressed in transfected cells
# Sequence (P15538 25-503): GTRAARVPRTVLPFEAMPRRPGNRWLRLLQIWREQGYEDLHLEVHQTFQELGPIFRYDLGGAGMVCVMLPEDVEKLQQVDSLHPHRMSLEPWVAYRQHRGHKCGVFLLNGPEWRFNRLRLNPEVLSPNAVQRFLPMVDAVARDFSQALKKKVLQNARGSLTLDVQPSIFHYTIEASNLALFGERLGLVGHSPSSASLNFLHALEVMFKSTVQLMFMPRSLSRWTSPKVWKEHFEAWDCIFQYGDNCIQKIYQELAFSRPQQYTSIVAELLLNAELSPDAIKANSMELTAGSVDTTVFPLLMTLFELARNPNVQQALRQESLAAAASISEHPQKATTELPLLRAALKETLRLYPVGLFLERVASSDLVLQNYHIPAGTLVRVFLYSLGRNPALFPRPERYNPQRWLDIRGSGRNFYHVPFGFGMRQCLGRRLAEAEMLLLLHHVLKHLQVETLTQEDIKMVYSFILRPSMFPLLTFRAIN
# procedure-details: G-402 cellular enzyme assay, human CYP11B1 (cortisol release, HTRF)
# Assay type: cell-based
# assay-conditions: G-402 cells expressing human CYP11B1; 1 μM Deoxycortisol
pEC50: −log10 of the molar value.
Could you label it YES if measured pEC50 is 6 or higher, and NO otherwise?

CCS(=O)(=O)NCc1cncc(-c2ccc3c(c2)CCC(=O)N3C)c1C | NO

Turning now to a further compound:
stdin: Dear colleague, could you confirm whether CC(N[S@+]([O-])C(C)(C)C)c1cncc(-c2ccc3c(c2)CCC(=O)N3C)c1 (single isomer, unassigned) [Example 56] has pEC50 at or above 6?
stdout: YES
